B1: PTPRD (parent)
chain: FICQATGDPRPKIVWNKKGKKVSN

- Variants of: B1
- Test Method Notes: protein stability index of a GFP-peptide fusion (GPS, HEK-293T) (PSI 1-6); higher = more stable;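 also: lentivirally expressed fusions sorted by FACS into six bins by GFP to DsRed ratio, PSI derived from sequencing read proportions per bin multiplied by bin number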
- Condition Context: c terminus: a fixed tail appended
Entries annotated with measured protein stability index
No unit in the answer, please; the number alone is enough.

Known protein stability index results, listed for orientation:
Item Sequence	protein stability index
SICQATGDPRPKIVWNKKGKKVSN [F1S]	3.3
FICQATGDPRPKIVWNKKGKMVSN [K21M]	2.03
FICQATGDPRPMIVWNKKGKKVSN [K12M]	1.58
FICQATGDPRPKIPWNKKGKKVSN [V14P]	2.21
FICQAMGDPRPKIVWNKKGKKVSN [T6M]	1.65

Query string: What value of measured protein stability index is listed for FICQATGDPRPKHVWNKKGKKVSN [I13H] ?
Result string: 1.74

Query string: Which measured protein stability index value corresponds to FSCQATGDPRPKIVWNKKGKKVSN [I2S] ?
Result string: 3.75

Query string: Return reported protein stability index; argument: FICQATGDPNPKIVWNKKGKKVSN [R10N]
Result string: 1.83

Query string: What value of protein stability index has been reported for the following variant? FICQATGDPRPKIVWNKHGKKVSN [K18H]
Result string: 2.35

Query string: Find the recorded protein stability index belonging to FICQATGDPRPKIVWNKKRKKVSN [G19R] and report it.
Result string: 2.05

Query string: Quick one: protein stability index of FICQAHGDPRPKIVWNKKGKKVSN [T6H] ?
Result string: 1.68

Query string: Entry FICQATGDPRPKIVWNKMGKKVSN [K18M] has what protein stability index?
Result string: 1.46

Query string: Field request: protein stability index | item: NICQATGDPRPKIVWNKKGKKVSN [F1N]
Result string: 3.89

Query string: State the recorded protein stability index for this entry: FICTATGDPRPKIVWNKKGKKVSN [Q4T]
Result string: 3.05

Query string: I have this variant here, FICQATGDPRPKIVWNKKGKKASN [V22A] , and I need its recorded protein stability index.
Result string: 2

Query string: What value of protein stability index has been reported for the following variant? FICQATGDPRPKIVWNKKGSKVSN [K20S]
Result string: 1.94
